# Tested on: OCI-AML2
# protocol: cell viability relative to vehicle control; higher = less cytotoxic;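 also: after 48 h exposure read by CellTiter-Glo luminescence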
# setup_conditions: 10 µM; SRSF2 genotype: wt/wt
quantity_kind: cell viability (%)
// return numeric value only (unit: %, not printed)

Use these answered entries as a reference point.
compound	cell viability, %
CC(=O)OCC(=O)[C@@]12OC(C)(C)O[C@@H]1C[C@H]1[C@@H]3C[C@H](F)C4=CC(=O)C=C[C@]4(C)[C@@]3(F)[C@@H](O)C[C@@]12C [Fluocinonide (Vanos)]	117
CCOC(=O)N1CCN(c2ccc(OC[C@H]3CO[C@](Cn4ccnc4)(c4ccc(Cl)cc4Cl)O3)cc2)CC1 [Elubiol]	15.9

Next up:
Look up and state reported cell viability for COc1ccc(C=O)c(O)c1 [4-Methoxysalicylaldehyde]
92

* * *

Below, each entry is listed with its recorded cell viability.
# Tested on: OCI-AML2
# protocol: cell viability relative to vehicle control; higher = less cytotoxic
# setup_conditions: 10 µM; SRSF2 genotype: wt/wt
// return numeric value only (unit: %, not printed)

Use these answered entries as a reference point.
molecule	reported
CC(C)c1cc(-c2n[nH]c(=O)n2-c2ccc3c(ccn3C)c2)c(O)cc1O [Ganetespib (STA-9090)]	21.1
NC(=O)c1ccc(OCCCN2CC3CCCC3C2)cc1 (stereo not drawn)	98
O=c1[nH]cnc2c1ncn2[C@H]1C[C@H](O)[C@@H](CO)O1	111
CN(C)C/C=C/C(=O)Nc1ccc(C(=O)Nc2cccc(Nc3ncc(Cl)c(-c4c[nH]c5ccccc45)n3)c2)cc1	0.63

Give cell viability for C[S+]([O-])c1ccc(-c2nc(-c3ccc(F)cc3)c(-c3ccncc3)[nH]2)cc1 (stereo not drawn) tested on OCI-AML2.
102

Give cell viability for N#Cc1c(Oc2ccc(F)c(NC(=O)Cc3cccc(C(F)(F)F)c3)c2)ccc2nc(NC(=O)C3CC3)sc12 tested on OCI-AML2.
36.8

Give cell viability for CCc1c2c(nc3ccc(O)cc13)-c1cc3c(c(=O)n1C2)COC(=O)[C@]3(O)CC tested on OCI-AML2.
1.9

Give cell viability for CO[C@@H]1[C@@H](OC(N)=O)[C@@H](O)[C@H](Oc2ccc3c(O)c(NC(=O)c4ccc(O)c(CC=C(C)C)c4)c(=O)oc3c2C)OC1(C)C [Novobiocin sodium (Albamycin)] tested on OCI-AML2.
94.4

Give cell viability for CN(C)C1CCN(C(=O)c2ccc(NC(=O)Nc3ccc(-c4nc(N5CCOCC5)nc(N5CCOCC5)n4)cc3)cc2)CC1 tested on OCI-AML2.
16.2

Give cell viability for O=C1CN(/N=C/C=C/c2ccc([N+](=O)[O-])o2)C(=O)N1 tested on OCI-AML2.
108

* * *

# Tested on: OCI-AML2
# protocol: cell viability relative to vehicle control; higher = less cytotoxic
# setup_conditions: 10 µM; SRSF2 genotype: wt/wt
Where a name gives a salt, the structure may show the parent alone.
Below, each entry is listed with its recorded cell viability.
// return numeric value only (unit: %, not printed)

Use these answered entries as a reference point.
compound	cell viability [%]
N#CC(=Cc1ccc(-c2cc(Cl)ccc2Cl)o1)C(=O)Nc1cccc2ncccc12	92
CN(CCO)CC(O)Cn1cnc2c1c(=O)n(C)c(=O)n2C (configuration not stated) [Xanthinol Nicotinate]	90.5
N=C(N)NC(=N)NCCc1ccccc1 [Phenformin hydrochloride]	89.3
CC(C)=CC(O)C/C(C)=C/COc1c2ccoc2cc2oc(=O)ccc12 (configuration not stated) [Notopterol]	43
Nc1nc2cc(-c3ccc4ncc(C(=O)N5CCOCC5)n4c3)ccc2o1 [Serabelisib (INK-1117,MLN-1117,TAK-117)]	65.4

Look up and state reported cell viability for Cc1[nH]nc(C(F)(F)F)c1Cc1sc2c(c1C(=O)N1C[C@](C)(O)CO1)c(=O)n(C)c(=O)n2C(C)C
99.9

Look up and state reported cell viability for CC1(C)CCC(C)(C)c2cc(NC(=O)c3ccc(C(=O)O)cc3)ccc21 [Tamibarotene]
61.5

* * *

Below, each entry is listed with its recorded cell viability.
# Test system: OCI-AML2
# protocol: cell viability relative to vehicle control; higher = less cytotoxic
# setup_conditions: 10 µM; SRSF2 genotype: wt/wt
// return numeric value only (unit: %, not printed)

molecule	cell viability (%)
O=C(c1ccc(F)c(F)c1Nc1ccc(I)cc1F)N1CC(O)([C@@H]2CCCCN2)C1	26.1
O=C(O)c1cc(O)c2c(c1)[C@@H]([C@H]1c3cc(C(=O)O)cc(O)c3C(=O)c3c(O[C@@H]4O[C@H](CO)[C@@H](O)[C@H](O)[C@H]4O)cccc31)c1cccc(O[C@@H]3O[C@H](CO)[C@@H](O)[C@H](O)[C@H]3O)c1C2=O [Sennoside B]	87.7
C[S+](CC[C@H](N)C(=O)[O-])C[C@H]1O[C@@H](n2cnc3c(N)ncnc32)[C@H](O)[C@@H]1O (some centres undefined)	133

Next up:
Look up and state reported cell viability for Cc1c(Cn2c(C)nc3c(C(=O)O)cc(N4CCOCC4)cc32)cccc1C(F)(F)F
95.2

* * *

# Test system: MARIMO
# protocol: cell viability relative to vehicle control; higher = less cytotoxic
# setup_conditions: 10 µM; SRSF2 genotype: SRSF2 P95H/wt
quantity_kind: cell viability (%)
// return numeric value only (unit: %, not printed)

Use these answered entries as a reference point.
compound	assay_system	cell viability / %
O=c1ccc2ccc(O)cc2[nH]1 [7-Hydroxycarbostyril]	MARIMO	95.4
Cc1c(O)c(=O)ccn1C [Deferiprone]	MARIMO	90.6
CC[C@H](Nc1ncnc2[nH]cnc12)c1nc2cccc(F)c2c(=O)n1-c1ccccc1	MARIMO	65.6
NC(=O)c1cccc2cn(-c3ccc(C4CCCNC4)cc3)nc12 (stereo not given) [MK-4827(Niraparib)]	MARIMO	40.9
Cc1noc(C)c1-c1ccc(-c2cc(C(N)=O)c(NC(N)=O)s2)c(O[C@H]2CCNC2)c1	MARIMO	94.9
Cn1cc(CNCC2CCN(c3ncc(C(=O)NO)cn3)CC2)c2ccccc21	MARIMO	7.96

Give cell viability for CCCN(CCc1cccs1)[C@H]1CCc2c(O)cccc2C1 [Rotigotine] tested on MARIMO.
89.7

* * *

# Tested on: MARIMO
# protocol: cell viability relative to vehicle control; higher = less cytotoxic
# setup_conditions: 10 µM; SRSF2 genotype: SRSF2 P95H/wt
Below, each entry is listed with its recorded cell viability.
// return numeric value only (unit: %, not printed)

compound	assay_system	cell viability / %
C=CCc1ccc(O)c(-c2ccc(O)c(CC=C)c2)c1	MARIMO	84.5

Look up and state reported cell viability for CCOc1cc(CC(=O)N[C@@H](CC(C)C)c2ccccc2N2CCCCC2)ccc1C(=O)O [Repaglinide]
103

Look up and state reported cell viability for NC(=O)c1cccc(-c2cccc(OC(=O)NC3CCCCC3)c2)c1
95

Look up and state reported cell viability for COc1cc(Nc2ncc(F)c(Nc3ccc4c(n3)N(COP(=O)(O)O)C(=O)C(C)(C)O4)n2)cc(OC)c1OC
107

Look up and state reported cell viability for COC(=O)c1ccc2c(c1)nc(NC(=O)c1ccccc1)n2CCCc1ccccc1
70.1

Look up and state reported cell viability for Cc1[nH]c(/C=C2\C(=O)Nc3ccc(S(=O)(=O)Cc4c(Cl)cccc4Cl)cc32)c(C)c1C(=O)N1CCC[C@@H]1CN1CCCC1
76.3

Look up and state reported cell viability for NC(=O)c1noc([C@H](CCCC2CCCCC2)CC(=O)NO)n1
61.7

Look up and state reported cell viability for COc1cc2nc(N3CCCN(C)CC3)nc(NC3CCN(Cc4ccccc4)CC3)c2cc1OC
0.75

Look up and state reported cell viability for Cc1ccc(Nc2cc(N[C@@H]3CCCC[C@@H]3N)nnc2C(N)=O)nc1C
76.2

* * *

# Test system: OCI-AML2
# protocol: cell viability relative to vehicle control; higher = less cytotoxic
# setup_conditions: 10 µM; SRSF2 genotype: wt/wt
Counter-ions that a name gives are not always drawn.
quantity_kind: cell viability
Could you give the number and then its unit, please?

Use these answered entries as a reference point.
compound	cell viability
CC(=O)OCC1=C(C(=O)O)N2C(=O)[C@@H](NC(=O)CSc3ccncc3)[C@H]2SC1 [cephapirin sodium]	101%
CC(C)=CCC[C@](C)(O)[C@H]1CC[C@]2(C)[C@@H]1[C@H](O)C[C@@H]1[C@@]3(C)CC[C@H](O[C@@H]4O[C@H](CO)[C@@H](O)[C@H](O)[C@H]4O[C@@H]4O[C@H](CO)[C@@H](O)[C@H](O)[C@H]4O)C(C)(C)[C@@H]3CC[C@]12C [20S-Ginsenoside Rg3]	104%

Look up and state reported cell viability for COC(=O)c1ccco1 [Methyl furan-2-carboxylate]
115%

Look up and state reported cell viability for c1cc2c(c3c1C[C@H]1c4cc5c(cc4CCN1C3)OCO5)OCO2 [Stylopine hydrochloride]
97.5%

Look up and state reported cell viability for Nc1nc2c(ncn2COC(CO)CO)c(=O)[nH]1 [Ganciclovir]
104%

Look up and state reported cell viability for CNC(=O)c1cc(Oc2ccc(NC(=O)Nc3cc(C(C)(C)C)nn3-c3ccc4ncccc4c3)c(F)c2)ccn1 [DCC-2036 (Rebastinib)]
14%

Look up and state reported cell viability for CC(CNC(=O)c1cccnc1)NC(=O)c1cccnc1 (stereo not drawn) [Nicaraven]
98.4%

Look up and state reported cell viability for O=C(O)CNC(=O)c1ccccc1 [Hippuric acid]
101%
